Hey, just so you know, these numbers are from paper PMC2994217.

test-description: Pharmacokinetics of sirolimus in blood (LC/MS/MS, non-compartmental)
Type: in vivo, patients
condition-description: human, whole blood, im, DL IM, sor 400 mg b.i.d., sir 1 mg q.d.; cycle 2 day 1, continuous sor on continuous sir; geometric mean (95% CI), n=2
measured-property: Cmax (ng/mL)
# unit: ng/mL | format: bare number

Lookup result for CO[C@H]1C[C@@H]2CC[C@@H](C)[C@@](O)(O2)C(=O)C(=O)N2CCCC[C@H]2C(=O)O[C@H]([C@H](C)C[C@@H]2CC[C@@H](O)[C@H](OC)C2)CC(=O)[C@H](C)/C=C(\C)[C@@H](O)[C@@H](OC)C(=O)[C@H](C)C[C@H](C)/C=C/C=C/C=C/1C ; measured Cmax: 11.2

---

test-description: Pharmacokinetics of sirolimus in blood (LC/MS/MS, non-compartmental)
Format: in vivo, patients
condition-description: human, whole blood, oral, DL 1, Sor 200 mg b.i.d., sir 2 mg q.d.; cycle 1 day 16, continuous dosing sor on single-dose sir; geometric mean (95% CI), n=6; read-out: AUC(0–96 h)
measured-property: AUC(0-t) (ng·h/mL)
# unit: ng·h/mL | format: bare number

Lookup result for CO[C@H]1C[C@@H]2CC[C@@H](C)[C@@](O)(O2)C(=O)C(=O)N2CCCC[C@H]2C(=O)O[C@H]([C@H](C)C[C@@H]2CC[C@@H](O)[C@H](OC)C2)CC(=O)[C@H](C)/C=C(\C)[C@@H](O)[C@@H](OC)C(=O)[C@H](C)C[C@H](C)/C=C/C=C/C=C/1C ; measured AUC(0-t): 78.2

---

test-description: Pharmacokinetics of sirolimus in blood (LC/MS/MS, non-compartmental)
Assay type: in vivo, patients
condition-description: human, whole blood, oral, AUC(0–12 h), DL 0, sor 200 mg b.i.d., sir 1 mg q.d.; cycle 2 day 1, continuous sor on continuous sir; geometric mean (95% CI), n=6
From the text: A paired t-test on log-transformed values was used to calculate changes in AUC, Cmax and t1/2. A P-value ⩽0.05 was considered significant.
measured-property: AUC(0-t) (ng·h/mL)
# unit: ng·h/mL | format: bare number

Lookup result for CO[C@H]1C[C@@H]2CC[C@@H](C)[C@@](O)(O2)C(=O)C(=O)N2CCCC[C@H]2C(=O)O[C@H]([C@H](C)C[C@@H]2CC[C@@H](O)[C@H](OC)C2)CC(=O)[C@H](C)/C=C(\C)[C@@H](O)[C@@H](OC)C(=O)[C@H](C)C[C@H](C)/C=C/C=C/C=C/1C [sirolimus] ; measured AUC(0-t): 59.4

---

test-description: Pharmacokinetics of sirolimus in blood (LC/MS/MS, non-compartmental)
Type: in vivo, patients
condition-description: human, whole blood, oral, 2 mg, DL 1, Sor 200 mg b.i.d., sir 2 mg q.d.; cycle 1 day 1, single-dose sir; geometric mean (95% CI), n=6; read-out: AUC(0–96 h)
Text: A paired t-test on log-transformed values was used to calculate changes in AUC, Cmax and t1/2. A P-value ⩽0.05 was considered significant.
measured-property: AUC(0-t) (µg·h/mL)
# unit: µg·h/mL | format: bare number

Lookup result for CO[C@H]1C[C@@H]2CC[C@@H](C)[C@@](O)(O2)C(=O)C(=O)N2CCCC[C@H]2C(=O)O[C@H]([C@H](C)C[C@@H]2CC[C@@H](O)[C@H](OC)C2)CC(=O)[C@H](C)/C=C(\C)[C@@H](O)[C@@H](OC)C(=O)[C@H](C)C[C@H](C)/C=C/C=C/C=C/1C ; measured AUC(0-t): 0.124

---

test-description: Pharmacokinetics of sirolimus in blood (LC/MS/MS, non-compartmental)
Format: in vivo, patients
condition-description: human, whole blood, im, AUC(0–12 h), DL IM, sor 400 mg b.i.d., sir 1 mg q.d.; cycle 2 day 1, continuous sor on continuous sir; geometric mean (95% CI), n=2
measured-property: AUC(0-t) (ng·h/mL)
# unit: ng·h/mL | format: bare number

Lookup result for CO[C@H]1C[C@@H]2CC[C@@H](C)[C@@](O)(O2)C(=O)C(=O)N2CCCC[C@H]2C(=O)O[C@H]([C@H](C)C[C@@H]2CC[C@@H](O)[C@H](OC)C2)CC(=O)[C@H](C)/C=C(\C)[C@@H](O)[C@@H](OC)C(=O)[C@H](C)C[C@H](C)/C=C/C=C/C=C/1C [sirolimus] ; measured AUC(0-t): 101

---

test-description: Pharmacokinetics of sirolimus in blood (LC/MS/MS, non-compartmental)
Type: in vivo, patients
condition-description: human, whole blood, oral, 2 mg, DL 1, Sor 200 mg b.i.d., sir 2 mg q.d.; cycle 1 day 1, single-dose sir; geometric mean (95% CI), n=6; read-out: t ½ (converted)
measured-property: half-life (h)
# unit: h | format: bare number

Lookup result for CO[C@H]1C[C@@H]2CC[C@@H](C)[C@@](O)(O2)C(=O)C(=O)N2CCCC[C@H]2C(=O)O[C@H]([C@H](C)C[C@@H]2CC[C@@H](O)[C@H](OC)C2)CC(=O)[C@H](C)/C=C(\C)[C@@H](O)[C@@H](OC)C(=O)[C@H](C)C[C@H](C)/C=C/C=C/C=C/1C ; measured half-life: 50.5

---

test-description: Pharmacokinetics of sirolimus in blood (LC/MS/MS, non-compartmental)
Assay type: in vivo, patients
condition-description: human, whole blood, oral, DL 0, sor 200 mg b.i.d., sir 1 mg q.d.; cycle 2 day 15, continuous sor on continuous sir; geometric mean (95% CI), n=6
measured-property: Cmax (ng/mL)
# unit: ng/mL | format: bare number

Lookup result for CO[C@H]1C[C@@H]2CC[C@@H](C)[C@@](O)(O2)C(=O)C(=O)N2CCCC[C@H]2C(=O)O[C@H]([C@H](C)C[C@@H]2CC[C@@H](O)[C@H](OC)C2)CC(=O)[C@H](C)/C=C(\C)[C@@H](O)[C@@H](OC)C(=O)[C@H](C)C[C@H](C)/C=C/C=C/C=C/1C ; measured Cmax: 6.36

---

test-description: Pharmacokinetics of sorafenib in plasma (LC/MS/MS, non-compartmental)
Assay type: in vivo, patients
condition-description: human, plasma, im, 400 mg b.i.d., DL IM, Sor 400 mg b.i.d., sir 1 mg q.d.; cycle 1 day 15, continuous dosing sor; geometric mean (95% CI), n=4
measured-property: Cmax
Number first, unit second.

Lookup result for CNC(=O)c1cc(Oc2ccc(NC(=O)Nc3ccc(Cl)c(C(F)(F)F)c3)cc2)ccn1 [sorafenib] ; measured Cmax: 13000 ng/mL

---

test-description: Pharmacokinetics of sirolimus in blood (LC/MS/MS, non-compartmental)
Format: in vivo, patients
condition-description: human, whole blood, oral, DL 0, sor 200 mg b.i.d., sir 1 mg q.d.; cycle 1 day 16, continuous dosing sor on single-dose sir; geometric mean (95% CI), n=6
Description: A paired t-test on log-transformed values was used to calculate changes in AUC, Cmax and t1/2. A P-value ⩽0.05 was considered significant.
measured-property: Cmax (ng/mL)
# unit: ng/mL | format: bare number

Lookup result for CO[C@H]1C[C@@H]2CC[C@@H](C)[C@@](O)(O2)C(=O)C(=O)N2CCCC[C@H]2C(=O)O[C@H]([C@H](C)C[C@@H]2CC[C@@H](O)[C@H](OC)C2)CC(=O)[C@H](C)/C=C(\C)[C@@H](O)[C@@H](OC)C(=O)[C@H](C)C[C@H](C)/C=C/C=C/C=C/1C [sirolimus] ; measured Cmax: 3.14

---

test-description: Pharmacokinetics of sorafenib in plasma (LC/MS/MS, non-compartmental)
Type: in vivo, patients
condition-description: human, plasma, oral, DL 0, Sor 200 mg b.i.d., sir 1 mg q.d.; cycle 2 day 15, continuous sir on continuous sor; geometric mean (95% CI), n=6
measured-property: Cmax

Lookup result for CNC(=O)c1cc(Oc2ccc(NC(=O)Nc3ccc(Cl)c(C(F)(F)F)c3)cc2)ccn1 ; measured Cmax: 7320 ng/mL

---

test-description: Pharmacokinetics of sirolimus in blood (LC/MS/MS, non-compartmental)
Format: in vivo, patients
condition-description: human, whole blood, oral, AUC(0–12 h), DL 1, Sor 200 mg b.i.d., sir 2 mg q.d.; cycle 2 day 15, continuous sor on continuous sir; n=1
measured-property: AUC(0-t) (ng·h/mL)
# unit: ng·h/mL | format: bare number

Lookup result for CO[C@H]1C[C@@H]2CC[C@@H](C)[C@@](O)(O2)C(=O)C(=O)N2CCCC[C@H]2C(=O)O[C@H]([C@H](C)C[C@@H]2CC[C@@H](O)[C@H](OC)C2)CC(=O)[C@H](C)/C=C(\C)[C@@H](O)[C@@H](OC)C(=O)[C@H](C)C[C@H](C)/C=C/C=C/C=C/1C ; measured AUC(0-t): 84.6
